tested on: AU565; assay: Antiproliferative activity against human AU565 cells assessed as reduction in cell viability after 5 to 7 days by CellTiter 96 aqueous solution assay; format: functional, cell-based
Endpoint name: IC50

Ask: // query IC50 value for entry COc1cc(N2CCOCC2)ccc1Nc1nc(Nc2ccccc2S(=O)(=O)C(C)C)c2cc[nH]c2n1
Result: > 10 µM

Ask: Looking for the measured IC50 of COc1cc(N2CCC(O)CC2)ccc1Nc1cc(Nc2ccccc2S(=O)(=O)C(C)C)c2cc[nH]c2n1 , can you help?
Result: > 10 µM

Ask: Query (compound): COc1ccccc1Nc1nc(Nc2ccccc2S(=O)(=O)C(C)C)c2cc[nH]c2n1 ; field requested: IC50
Result: > 10 µM

Ask: Consider the compound shown here: COc1cc(N2CCOCC2)ccc1Nc1nc(NC2CCCCC2)c2cc[nH]c2n1 What is its recorded IC50?
Result: 0.95 µM

Ask: Any idea what IC50 was measured for COc1cc(N2CCC(O)CC2)ccc1Nc1nc(Nc2ccccc2S(=O)(=O)C(C)C)c2cc[nH]c2n1 ?
Result: > 10 µM
